# targetOfAssay: Nluc-H1R (Homo sapiens, UniProt P35367)
# Sequence (P35367 whole entry): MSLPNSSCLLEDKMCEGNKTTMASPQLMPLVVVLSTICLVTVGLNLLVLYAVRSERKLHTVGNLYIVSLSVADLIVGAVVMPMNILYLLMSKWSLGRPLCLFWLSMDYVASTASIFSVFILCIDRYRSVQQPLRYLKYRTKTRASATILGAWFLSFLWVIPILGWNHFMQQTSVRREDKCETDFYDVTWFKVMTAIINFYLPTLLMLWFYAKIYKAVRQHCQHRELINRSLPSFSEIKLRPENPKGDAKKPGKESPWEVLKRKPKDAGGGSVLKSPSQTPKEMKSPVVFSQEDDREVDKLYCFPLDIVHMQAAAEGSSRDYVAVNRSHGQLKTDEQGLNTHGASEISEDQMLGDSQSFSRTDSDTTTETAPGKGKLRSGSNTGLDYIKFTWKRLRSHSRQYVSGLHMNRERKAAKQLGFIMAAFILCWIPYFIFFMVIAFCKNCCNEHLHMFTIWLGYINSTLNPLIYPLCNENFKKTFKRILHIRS
# testSummary: NanoBRET saturation binding assay on Nluc-H1R expressing HEK293T cells
# Parameters: expressed in transfected cells
# condition: saturation binding curves, whole HEK293T cells, non-specific with 10 μM mepyramine; mean ± SEM
Square brackets hold non-standard residues; d marks the D form. Side chains are listed from the residue outwards. Peptide text beside a SMILES is read from it. * marks the point of attachment. X1 = O=C(COc1ccc(/C=C/C2=[N+]3C(=Cc4ccc(-c5cccs5)n4[B-]3(F)F)C=C2)cc1)*; Propanoyl(3-Pip(4-O-2-BnPh)) = O=C(CCN1CCC(Oc2ccccc2Cc2ccccc2)CC1)*; BODIPY(FL) = CC1=CC(C)=[N+]2C1=Cc1ccc(CCC(=O)*)n1[B-]2(F)F; X2 = O=C(CCC1=[N+]2C(=Cc3ccc(-c4cccs4)n3[B-]2(F)F)C=C1)*; Ahx = NCCCCCC(=O)O; βAla = NCCC(=O)O
quantityMeasured: pKD
Form rule: numeric answer, no unit written next to it.

-- ask Recall the reported pKD of C[C@H](NC(=O)[C@H](C)NC(=O)[C@H](Cc1ccccc1)NC(=O)CCN1CCC(Oc2ccccc2Cc2ccccc2)CC1)C(=O)NCCC(=O)N[C@@H](CCCCNC(=O)COc1ccc(/C=C/C2=[N+]3C(=Cc4ccc(-c5cccs5)n4[B-]3(F)F)C=C2)cc1)C(N)=O [Compound 31k] ({Propanoyl(3-Pip(4-O-2-BnPh))}-FAA[βAla]K(X1)-NH2) on Nluc-H1R (Homo sapiens, UniProt P35367) and write it down.
-- reply 7.92

-- ask Recall the reported pKD of C[C@H](NC(=O)CCN1CCC(Oc2ccccc2Cc2ccccc2)CC1)C(=O)N[C@@H](C)C(=O)N[C@@H](C)C(=O)N[C@@H](Cn1cc(COc2ccc(/C=C/C3=[N+]4C(=Cc5ccc(-c6cccs6)n5[B-]4(F)F)C=C3)cc2)nn1)C(N)=O [Compound 22b] on Nluc-H1R (Homo sapiens, UniProt P35367) and write it down.
-- reply 7.70

-- ask Recall the reported pKD of CC(C)[C@H](NC(=O)CCN1CCC(Oc2ccccc2Cc2ccccc2)CC1)C(=O)N[C@@H](CO)C(=O)N[C@@H](CC(N)=O)C(=O)NCCC(=O)N[C@@H](CCCCNC(=O)CCC1=[N+]2C(=Cc3ccc(-c4cccs4)n3[B-]2(F)F)C=C1)C(N)=O [Compound 38c] ({Propanoyl(3-Pip(4-O-2-BnPh))}-VSN[βAla]K(X2)-NH2) on Nluc-H1R (Homo sapiens, UniProt P35367) and write it down.
-- reply 6.68

-- ask Recall the reported pKD of CC(C)[C@H](NC(=O)CCN1CCC(Oc2ccccc2Cc2ccccc2)CC1)C(=O)N[C@@H](CO)C(=O)N[C@@H](CC(N)=O)C(=O)NCCC(=O)N[C@@H](CCCCNC(=O)CCCCC[N+]1=C(/C=C/C=C/C=C2/N(C)c3ccc(S(=O)(=O)[O-])cc3C2(C)C)C(C)(C)c2cc(S(=O)(=O)O)ccc21)C(N)=O [Compound 38f] on Nluc-H1R (Homo sapiens, UniProt P35367) and write it down.
-- reply 5.66

-- ask Recall the reported pKD of C[C@H](NC(=O)[C@@H](NC(=O)CCN1CCC(Oc2ccccc2Cc2ccccc2)CC1)[C@@H](C)O)C(=O)N[C@@H](CC(N)=O)C(=O)NCCC(=O)N[C@@H](CCCCNC(=O)COc1ccc(/C=C/C2=[N+]3C(=Cc4ccc(-c5cccs5)n4[B-]3(F)F)C=C2)cc1)C(N)=O [Compound 31d] ({Propanoyl(3-Pip(4-O-2-BnPh))}-TAN[βAla]K(X1)-NH2) on Nluc-H1R (Homo sapiens, UniProt P35367) and write it down.
-- reply 8.29

-- ask Recall the reported pKD of Cc1cc(C)n2c1C=C1C=CC(CCC(=O)NCCCCCC(=O)NCCCC[C@H](NC(=O)CCNC(=O)[C@H](C)NC(=O)[C@H](C)NC(=O)[C@H](Cc3ccccc3)NC(=O)CCN3CCC(Oc4ccccc4Cc4ccccc4)CC3)C(N)=O)=[N+]1[B-]2(F)F [Compound 39e] ({Propanoyl(3-Pip(4-O-2-BnPh))}-FAA[βAla]K([Ahx-BODIPY(FL)])-NH2) on Nluc-H1R (Homo sapiens, UniProt P35367) and write it down.
-- reply 5.57
